Target: T1, human CD71 extracellular domain (human, UniProt P02786 89-760)
T1 construct: also called hCD71; human CD71-ECD
T1 sequence (P02786 89-760): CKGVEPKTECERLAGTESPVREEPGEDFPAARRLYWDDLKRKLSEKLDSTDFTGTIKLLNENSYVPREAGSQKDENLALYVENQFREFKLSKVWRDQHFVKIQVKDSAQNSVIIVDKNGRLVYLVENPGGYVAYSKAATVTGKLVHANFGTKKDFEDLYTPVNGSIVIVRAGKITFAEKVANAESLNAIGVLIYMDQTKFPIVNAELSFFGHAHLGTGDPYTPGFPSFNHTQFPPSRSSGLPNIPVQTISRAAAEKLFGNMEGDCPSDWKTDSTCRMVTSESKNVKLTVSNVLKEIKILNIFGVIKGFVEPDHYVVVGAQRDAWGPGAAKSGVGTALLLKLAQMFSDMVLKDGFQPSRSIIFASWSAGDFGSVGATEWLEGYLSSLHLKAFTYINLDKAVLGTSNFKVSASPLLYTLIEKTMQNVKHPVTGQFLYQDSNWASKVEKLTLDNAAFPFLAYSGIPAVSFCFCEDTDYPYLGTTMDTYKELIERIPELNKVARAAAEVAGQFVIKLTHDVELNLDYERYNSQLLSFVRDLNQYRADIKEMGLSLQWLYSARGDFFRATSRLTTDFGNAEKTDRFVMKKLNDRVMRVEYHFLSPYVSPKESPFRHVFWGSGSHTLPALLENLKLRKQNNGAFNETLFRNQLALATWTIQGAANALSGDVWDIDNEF
Experiment: primary ELISA; note: test concentration or dose not given here
readout_type: RLU (RLU)
Hi! Could you send only the number? It should be in RLU, unit omitted.

Field: example entries. Status: answers known.
CD71-binding FN3 domain of SEQ ID NO: 205 (designed binder) MSLPAPKNLVVSRVTEDSARLSWTAPDAAFDSFEIGYFENLYLGEAIHLFVPGSERSYDLTGLKPGTEYNVTIQGVKGGFPSEPLIANFTT ... 1.02e+06
CD71-binding FN3 domain of SEQ ID NO: 199 (designed binder) MSLPAPKNLVVSRVTEDSARLSWTAPDAAFDSFEIGYFENLYLGEAIVLTVPGYERSYDLTGLKPGTEYWVQIGGVKGGNWSAPLSAIFTT ... 4.45e+06
CD71-binding FN3 domain of SEQ ID NO: 171 (designed binder) MSLPAPKNLVVSRVTEDSARLSWTAPDAAFDSFEIGYFENLYLGEAIVLTVPGSERSYDLTGLKPGTEYWVQIGGVKGGEWSSPLSAIFTT ... 4.4e+06
CD71-binding FN3 domain of SEQ ID NO: 193 (designed binder) MSLPAPKNLVVSRVTEDSARLSWTAPDAAFDSFEIGYFENLYLGEAIVLTVPGSERSYDLTGLKPGTEYWVQIGGVKGGNWSEPLSAIFTT ... 2.33e+06
CD71-binding FN3 domain of SEQ ID NO: 165 (designed binder) MSLPAPKNLVVSRVTEDSARLSWTAPDAAFDSFYIAYAEPRPDGEAILLEVPGSERSYDLAGLKPGTEYSVLIHGVKGGLLSSPLGAEFTT ... 4.25e+06
CD71-binding FN3 domain of SEQ ID NO: 216 (designed binder) MSLPAPKNLVVSRVTEDSARLSWTAPDAAFDSFEIAYFEQTYTGEAIVLTVPGSERSYDLTGLKPGTEYWVQIGGVKGGTWSAPLSAISTT ... 3.37e+06
CD71-binding FN3 domain of SEQ ID NO: 218 (designed binder) MSLPAPKNLVVSRVTEDSARLSWTAPDAAFDSFEIAYHEDDFYGEAIALLVPGSERSYDLTGLKPGTEYIVHIGGVKGGFFSSPLYAWFTT ... 2.42e+06
CD71-binding FN3 domain of SEQ ID NO: 161 (designed binder) MSLPAPKNLVVSRVTEDSARLSWTAPDAAFDSFFIGYLEPQPPGEAIVLTVPGSERSYDLTGLKPGTEYNVTIQGVKGGFPSEPLVAHFTT ... 5.73e+06
CD71-binding FN3 domain of SEQ ID NO: 119 (designed binder) MSLPAPKNLVVSRVTEDSARLSWTAPDAAFDSFFIGYLEPQPPGEAIELYVPGSERSYDLTGLKPGTEYNVTIQGVKGGFPSDPLVAFFTT ... 7.04e+06
CD71-binding FN3 domain of SEQ ID NO: 183 (designed binder) MSLPAPKNLVISRVTEDSARLSWTAPDAAFDSFEIVYAEPVRFGEAIVLTVPGSERSYDLTGLKPGTEYWVQIGGVKGGEWSSPLSAIFTT ... 3.19e+06

Here is the next item to consider.
Memo: CD71-binding FN3 domain of SEQ ID NO: 147 (designed binder) MSLPAPKNLVVSRVTEDSARLSWTAPDAAFDSFFIGYLEPQPPGEAIELFVPGSERSYDLTGLKPGTEYNVTIQGVKGGFPSGPLIASFTT , reported RLU: 5.56e+06
